All figures here come from patent US10526316B2.

Notes on Kd obtained with UniProtKB P42336.
Sequence (P42336 whole entry): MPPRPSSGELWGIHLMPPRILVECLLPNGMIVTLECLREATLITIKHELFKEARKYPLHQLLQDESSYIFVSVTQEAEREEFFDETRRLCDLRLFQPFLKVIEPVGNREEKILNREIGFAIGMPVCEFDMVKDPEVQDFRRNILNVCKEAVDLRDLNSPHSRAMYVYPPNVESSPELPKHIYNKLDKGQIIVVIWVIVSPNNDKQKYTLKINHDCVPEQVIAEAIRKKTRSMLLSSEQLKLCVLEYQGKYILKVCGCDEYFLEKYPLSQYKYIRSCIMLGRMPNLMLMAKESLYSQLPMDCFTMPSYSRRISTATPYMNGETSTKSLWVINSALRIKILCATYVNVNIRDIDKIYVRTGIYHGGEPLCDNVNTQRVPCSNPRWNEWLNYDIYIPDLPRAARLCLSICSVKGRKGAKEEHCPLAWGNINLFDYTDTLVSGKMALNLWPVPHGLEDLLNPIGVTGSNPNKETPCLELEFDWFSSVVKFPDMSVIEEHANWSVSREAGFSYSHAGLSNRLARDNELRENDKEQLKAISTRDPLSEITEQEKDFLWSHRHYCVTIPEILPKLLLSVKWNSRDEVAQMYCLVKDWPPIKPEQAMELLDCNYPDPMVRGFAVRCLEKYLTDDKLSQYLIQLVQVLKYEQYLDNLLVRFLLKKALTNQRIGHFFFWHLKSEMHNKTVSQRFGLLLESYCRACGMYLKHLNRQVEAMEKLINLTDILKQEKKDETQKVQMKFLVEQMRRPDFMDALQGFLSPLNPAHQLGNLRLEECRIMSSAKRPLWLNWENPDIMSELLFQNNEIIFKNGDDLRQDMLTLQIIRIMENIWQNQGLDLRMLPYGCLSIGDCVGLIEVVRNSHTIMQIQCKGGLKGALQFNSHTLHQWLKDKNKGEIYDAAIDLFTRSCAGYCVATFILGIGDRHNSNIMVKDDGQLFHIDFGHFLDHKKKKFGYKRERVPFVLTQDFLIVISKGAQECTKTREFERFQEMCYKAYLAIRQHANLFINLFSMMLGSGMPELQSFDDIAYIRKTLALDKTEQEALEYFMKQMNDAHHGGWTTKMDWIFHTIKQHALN
parameterMeasured: Kd (µM)

Below, each entry is followed by its recorded Kd result.
>>> observedvalue("CC(Nc1cccc(F)c1)c1cc(C(=O)NC[C@@H](C)O)cc2ncc(N3CCOCC3)nc12 (some centres unmarked) [Compound 338]")
2.34
>>> observedvalue("CC1CN(C(=O)c2cc(C(C)Nc3ccc(F)c(F)c3)c3nc(N4CCOCC4)cnc3c2)CC(C)N1 (centres unmarked) [Compound 357b]")
0.933
>>> observedvalue("CC(Nc1ccc(F)c(F)c1)c1cc(C(=O)N(C)CCN(C)C)cc2ncc(N3CCOCC3)nc12 (single isomer, unassigned) [Compound 349b]")
4.68
>>> observedvalue("[2H]C([2H])(O)C([2H])([2H])NC(=O)c1cc(C(C)Nc2cccc(F)c2)c2nc(N3CCOCC3)cnc2c1 (single isomer, unassigned) [Compound 408b]")
23.4
>>> observedvalue("CC(Nc1cc(F)cc(F)c1)c1cc(CN2CCOCC2)cc2ncc(N3CCOCC3)nc12 (centres unmarked) [Compound 168]")
3.63

(I) CC(Nc1cc(F)c(F)c(F)c1)c1cc(C(=O)N2CCCN(C(C)C)CC2)cc2ncc(N3CCOCC3)nc12 (single isomer, unassigned) [Compound 388b]
(II) CN[C@@H]1CCN(C(=O)c2cc(C(C)Nc3ccc(F)c(F)c3)c3nc(N4CCOCC4)cnc3c2)C1 (single isomer, unassigned) [Compound 371a]
Ask: Look at I and II . Which one has the lower recorded Kd number? Let me know the label of the one you choose.
Reply: II

(I) CC(Nc1ccc(F)c(F)c1)c1cc(C(=O)NC2CCNC2)cc2ncc(N3CCOCC3)nc12 (centres unmarked) [Compound 325a]
(II) Cc1ccc(NC(C)c2cc(C(=O)NCCO)cc3ncc(N4CCOCC4)nc23)cc1F (single isomer, unassigned) [Compound 295a]
(III) CC(Nc1ccc(F)c(F)c1)c1cc(C(=O)N2CCN3CCC[C@@H]3C2)cc2ncc(N3CCOCC3)nc12 (single isomer, unassigned) [Compound 347b]
Ask: Could you please sort these 3 entries by Kd from high to low? Quick reminder: the answer is the labels in the order asked.
Reply: I, II, III

(1) CN(C)CCNC(=O)c1cc(NCc2cc(F)cc(F)c2)c2nc(N3CCOCC3)cnc2c1 [Compound 384]
(2) CC(Nc1ccc(F)c(F)c1)c1cc(C(=O)N2CC[C@@H](O)C2)cc2ncc(N3CCOCC3)nc12 (single isomer, unassigned) [Compound 300b]
Ask: When their Kd values are compared, which is larger, 1 or 2 ? Let me know the label of the one you choose.
Reply: 2
